Source: paper PMC12416549

assay-system: T1, TNFR1 (Homo sapiens, UniProt P19438)
T1 chain: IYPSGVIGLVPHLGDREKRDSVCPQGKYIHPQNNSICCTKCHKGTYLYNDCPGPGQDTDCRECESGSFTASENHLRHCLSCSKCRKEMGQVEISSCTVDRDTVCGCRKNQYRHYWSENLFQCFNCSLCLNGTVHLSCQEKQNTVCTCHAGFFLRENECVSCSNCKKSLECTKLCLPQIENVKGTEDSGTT
assay-remarks: yeast display SC50
assay-endpoint: apparent Kd (screen)

[[record]]
binder = "A88L (designed binder) MTLQELLREEALRRAEAEAFRYALELLAEKFPEQKEYLLDLAEEIESQIRSLSGVDVEDVRKFLDKEWAWVKELLAEHPAELAEVEALRAARLAELRAEVEAKVAA"
assay_endpoint = "apparent Kd (screen)"
obs_value = "0.49 nM"

[[record]]
binder = "A19G (designed binder) MTLQELLREEALRRAEAEGFRYALELLAEKFPEQKEYLLDLAEEIESQIRSLSGVDVEDVRKFLDKEWAWVKELLAEHPAELAEVEAARAARLAELRAEVEAKVAA"
assay_endpoint = "apparent Kd (screen)"
obs_value = "0.593 nM"

[[record]]
binder = "R89F (designed binder) MTLQELLREEALRRAEAEAFRYALELLAEKFPEQKEYLLDLAEEIESQIRSLSGVDVEDVRKFLDKEWAWVKELLAEHPAELAEVEAAFAARLAELRAEVEAKVAA"
assay_endpoint = "apparent Kd (screen)"
obs_value = "1.05 nM"

[[record]]
binder = "P79Q (designed binder) MTLQELLREEALRRAEAEAFRYALELLAEKFPEQKEYLLDLAEEIESQIRSLSGVDVEDVRKFLDKEWAWVKELLAEHQAELAEVEAARAARLAELRAEVEAKVAA"
assay_endpoint = "apparent Kd (screen)"
obs_value = "0.593 nM"

